- assay_remarks: Reversal of P-gp-mediated multidrug resistance to vinblastine in human CEM/VLB500 cells after 3 days by resazurin assay
reported_metric: EC50 (nM)

Study these solved cases before continuing.
{"molecule": "COc1ccc(CN2CCN(c3ccc(NC(=O)c4ccccc4NC(=O)c4cnc5ccccc5c4)cc3)CC2)cc1OC", "u": "nM", "measured": 124}
{"molecule": "COc1ccc(CCN2CCC[C@H]2CNC(=O)c2ccccc2NC(=O)c2cnc3ccccc3c2)cc1OC", "u": "nM", "measured": 329}
{"molecule": "COc1ccc(CCN2CCC[C@@H]2CNC(=O)c2ccccc2NC(=O)c2cnc3ccccc3c2)cc1OC", "u": "nM", "measured": 482}

A: COc1ccc(CN2CCN(c3ccc(NC(=O)c4cc(OC)c(OC)cc4NC(=O)c4cnc5ccccc5c4)cc3)CC2)cc1OC
B: O=C(Nc1ccccc1C(=O)N[C@@H]1CCCC[C@@H]1N1CCN(c2ccccc2)CC1)c1cnc2ccccc2c1 (racemic)
## Task Returns the identifier with the smallest measured EC50 among A and B . Use the label to indicate which entry you chose.
## Result A
(A: 59 nM, B: 648 nM)
